# Assayed Target: human CD39 (Homo sapiens)
# Sequence (P49961 1-510): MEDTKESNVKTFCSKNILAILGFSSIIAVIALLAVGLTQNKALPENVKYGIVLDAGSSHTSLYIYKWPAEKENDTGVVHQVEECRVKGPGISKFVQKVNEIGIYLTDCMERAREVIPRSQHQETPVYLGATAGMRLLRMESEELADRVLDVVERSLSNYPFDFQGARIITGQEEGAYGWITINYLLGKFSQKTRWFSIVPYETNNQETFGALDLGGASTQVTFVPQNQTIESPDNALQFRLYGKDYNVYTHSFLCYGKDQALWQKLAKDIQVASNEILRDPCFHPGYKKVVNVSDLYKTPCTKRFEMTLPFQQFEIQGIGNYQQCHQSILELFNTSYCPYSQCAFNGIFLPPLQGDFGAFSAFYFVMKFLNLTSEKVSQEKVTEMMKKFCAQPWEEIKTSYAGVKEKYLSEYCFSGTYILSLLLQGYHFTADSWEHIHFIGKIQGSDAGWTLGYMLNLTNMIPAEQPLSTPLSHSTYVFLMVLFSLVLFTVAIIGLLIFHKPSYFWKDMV
# Test Description: Fluorescence capillary electrophoresis assay for CD39
# Type: biochemical
# Parameters: Human umbilical cord membrane preparations (250 ng) natively expressing high amounts of CD39; from tissue; host or cells: human umbilical cord membranes
# Condition Parameters: fluorescent substrate PSB-017621A 0.5 µM; human umbilical cord membrane preparation; n = 3; Cheng-Prusoff; read-out: Ki ± SEM
pKi: −log10 of the molar value.
Value Type: pKi

(1) CCCN(C)c1ncnc2c1ncn2[C@@H]1O[C@H](COP(=O)(O)OP(=O)(O)C(Br)(Br)P(=O)(O)O)[C@@H](O)[C@H]1O
(2) Nc1ncnc2c1ncn2[C@@H]1O[C@H](COP(=O)(O)OP(=O)(O)C(F)(F)P(=O)(O)O)[C@@H](O)[C@H]1O
Q. Sorting ascending by pKi, which comes first: 1 or 2 ? Refer to your chosen item by its label in the answer.
A. 2

(P) CCCN(CCC)c1ncnc2c1ncn2[C@@H]1O[C@H](COP(=O)(O)OP(=O)(O)C(Br)(Br)P(=O)(O)O)[C@@H](O)[C@H]1O
(Q) CN(C)c1ncnc2c1ncn2[C@@H]1O[C@H](COP(=O)(O)OP(=O)(O)C(Br)(Br)P(=O)(O)O)[C@@H](O)[C@H]1O
(R) CCCCSc1nc2c(N(CC)CC)ncnc2n1[C@@H]1O[C@H](COP(=O)(O)OP(=O)(O)C(Br)(Br)P(=O)(O)O)[C@@H](O)[C@H]1O
(S) CCCCNc1nc2c(NC)ncnc2n1[C@@H]1O[C@H](COP(=O)(O)OP(=O)(O)C(Br)(Br)P(=O)(O)O)[C@@H](O)[C@H]1O
Q. Ascending by pKi, please. Use the labels to give the ranking in the order requested.
A. Q, R, P, S
(Q: 4.40, R: 5.13, P: 5.57, S: 5.82)

(I) O=P(O)(OC[C@H]1O[C@@H](n2cnc3c(NCCc4ccccc4)ncnc32)[C@H](O)[C@@H]1O)OP(=O)(O)C(Br)(Br)P(=O)(O)O
(II) Nc1ncnc2c1ncn2[C@@H]1O[C@H](COP(=O)(O)OP(=O)(O)C(Cl)(Cl)P(=O)(O)O)[C@@H](O)[C@H]1O
Q. Among I and II , which shows a numerically higher pKi result? Refer to your chosen item by its label in the answer.
A. I
